Each recorded value in this set is attributed to PubChem BioAssay AID1645865.

# systemTested: Ubiquitin carboxyl-terminal hydrolase 30 (Homo sapiens)
# assayComment: inhibitors of ubiquitin-specific protease 30 deubiquitylating enzyme, concentration dependence, in vitro biochemical, validation of primary hits (AID 1645865)
# conditionDetails: purified USP30, Ub-rhodamine cleavage, fluorescence, 2 h
The source made the active and inactive calls.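 Rule for the calls: active = maximal inhibition of the USP30 enzyme reaching 30% or more across the dose series; inactive = the rest.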
I would appreciate it if you answered using one of these outcomes: active, inactive

INSERT INTO measurements (compound, grouplabel) VALUES
  ('COc1cccc(NC(=O)C2CCN(C(=O)c3cc(-c4cccnc4)n[nH]3)CC2)c1', 'inactive'),
  ('O=C(Cn1cncc(C(=O)NC2CCCC2)c1=O)Nc1cccc(F)c1', 'active'),
  ('Cc1ccccc1NC(=O)Nc1ccccc1OCc1cc(=O)n2cccc(C)c2n1', 'active');

Incoming: Look up the recorded call for `COc1cnc(-c2ccccn2)nc1Sc1ccccc1Cl` in this test.
Outgoing: active

Incoming: Look up the recorded call for `Cc1ccc(C)c(-c2cc3c(=O)n(Cc4noc(CN5CCCCC5)n4)ccn3n2)c1` in this test.
Outgoing: inactive

Incoming: Look up the recorded call for `O=C(c1ccnn1-c1ccc2ccc(-c3ccncc3)cn12)N1CCCC1` in this test.
Outgoing: inactive

Incoming: Look up the recorded call for `N#Cc1ccccc1OCc1csc(-c2ccccc2)n1` in this test.
Outgoing: inactive

Incoming: Look up the recorded call for `O=C(NCc1ccc2c(c1)OCO2)c1nnc(Cc2ccc(F)cc2)o1` in this test.
Outgoing: active

Incoming: Look up the recorded call for `CC(C)N1CC[C@@H]2[C@H](C1)CN2C(=O)Nc1cccc(F)c1` in this test.
Outgoing: inactive

Incoming: Look up the recorded call for `COc1ccc(OC)c(CCNC(=O)CCC2=NS(=O)(=O)c3ccc(C(F)(F)F)cc3N2)c1` in this test.
Outgoing: active

Incoming: Look up the recorded call for `COc1ccc(C(=O)Nc2ccc(S(=O)(=O)N3CCCCC3)cc2)cc1` in this test.
Outgoing: inactive
